# measuredTarget: 5-HT1A serotonin receptor (Rattus norvegicus)
# Sequence (P19327 whole entry): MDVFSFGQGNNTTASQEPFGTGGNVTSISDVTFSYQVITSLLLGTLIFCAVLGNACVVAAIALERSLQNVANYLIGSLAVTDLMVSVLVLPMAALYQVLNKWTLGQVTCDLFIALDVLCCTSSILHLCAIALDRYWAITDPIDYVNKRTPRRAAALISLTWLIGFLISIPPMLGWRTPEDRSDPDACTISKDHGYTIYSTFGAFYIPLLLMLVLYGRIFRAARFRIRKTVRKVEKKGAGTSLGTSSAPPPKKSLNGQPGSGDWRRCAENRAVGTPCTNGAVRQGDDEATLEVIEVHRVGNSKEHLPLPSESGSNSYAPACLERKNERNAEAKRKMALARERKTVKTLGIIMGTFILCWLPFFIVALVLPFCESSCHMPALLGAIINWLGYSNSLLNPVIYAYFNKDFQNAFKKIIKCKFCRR
# measurementNotes: Serotonin 5-HT1A receptor binding (displacement of [3H]-8-OHDPAT)
# Parameters: from tissue
# experimentalContext: [3H]-8-OHDPAT displacement
// reported inhibition at 1 µM per item
State the answer as a number, implicitly in %.

molecule | quantityName | u | dataValue
Fc1ccc(C(c2ccc(F)cc2)N2CCN(CCCOc3ccc4c(c3)CCC4)CC2)cc1 [Example 2] | inhibition at 1 µM | % | 43
c1ccc2c(c1)OCC(CNCCCOc1ccc3c(c1)CCC3)O2 (stereo not drawn) [Example 6] | inhibition at 1 µM | % | 99
Clc1cncc(N2CCN(CCCOc3ccc4c(c3)CCC4)CC2)n1 [Example 3] | inhibition at 1 µM | % | 48

### Prompt Consider the molecule c1cnc(N2CCN(CCCOc3ccc4c(c3)CCC4)CC2)nc1 [Example 1] . State its measured inhibition at 1 µM.
### Response 91

### Prompt Consider the molecule c1ccc2c(c1)OCC(CNCCOc1ccc3c(c1)CCC3)O2 (stereo not drawn) [Example 5] . State its measured inhibition at 1 µM.
### Response 76

### Prompt Consider the molecule c1ccc2c(c1)OCC(CNCCCCOc1ccc3c(c1)CCC3)O2 (stereo not drawn) [Example 4] . State its measured inhibition at 1 µM.
### Response 92
